# Assayed target: T1, Human 14-3-3γΔC (residues 1-235 lacking the C-terminal 13-residue-long flexible tail) (human, UniProt P61981 1-235)
# T1 construct: 14-3-3 protein gamma, human, residues 1-235 (C-terminally truncated)
# T1 sequence (looked up): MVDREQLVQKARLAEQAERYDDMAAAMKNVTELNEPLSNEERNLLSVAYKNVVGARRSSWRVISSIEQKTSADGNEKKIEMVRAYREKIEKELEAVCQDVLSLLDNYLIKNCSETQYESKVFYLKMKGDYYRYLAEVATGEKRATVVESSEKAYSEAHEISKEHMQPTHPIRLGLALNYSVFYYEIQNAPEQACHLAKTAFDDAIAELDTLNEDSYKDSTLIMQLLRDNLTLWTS
# Test method notes: fluorescence polarisation; 14-3-3γ (160 µM and binary dilution series) incubated 1 h with 50 nM FAM-labelled peptide; 20 mM HEPES-NaOH pH 7.4, 150 mM NaCl, 0.1% Tween 20, 0.1% BSA; one-site-binding model; apparent KD
# Settings: both partners purified
Non-standard residues stand in square brackets, D forms with d. No end group written: not given here. *: point of attachment. 5FAM = O=C1OC2(c3ccc(O)cc3Oc3cc(O)ccc32)c2ccc(C(=O)*)cc21; pT = C[C@@H](OP(=O)(O)O)[C@H](N)C(=O)O
Experimental endpoint: Kd (nM)
Enter your answer as a number in nM; do not include the unit.

For 5FAM-RRRSS[pT]S (source: synthetic peptide (Pepscan Presto BV)) [FAM-ctDAPK2-pT369 peptide (FAM-RRRSSpTS)] the binder record lists Kd as 161

Data provenance: paper PMC8376927
